# targetSystem: UniProtKB P53634
# experimentalDetails: DPP1 activity inhibition test on U937 cells
# Type: cell-based
# conditionLabel: U-937, 5 nM compound, substrate h-Gly-phe-AFC
# Description: After incubation at 37° C. for 1 h, add h-Gly-phe-AFC (10 μL) to each well and start reaction.
Each entry below lists one item and its recorded inhibition at 0.005 µM value.

Some solved entries appear below for comparison.
molecule	targetSystem	inhibition at 0.005 µM
CN1CCC2(CC1)OC(=O)c1ccc(-c3ccc(C[C@@H](C#N)NC(=O)[C@@H]4CNCCCO4)cc3)cc12 [Compound D25]	UniProtKB P53634	30 to 75%
N#C[C@H](Cc1ccc(-c2ccc3c(c2)C(=O)CO3)cc1)NC(=O)[C@@H]1CNCCCO1 [Compound D10]	UniProtKB P53634	< 30%
CC1CNC[C@@H](C(=O)N[C@H](C#N)Cc2ccc(-c3ccc4oc(=O)n(C)c4c3)cc2F)OC1 (stereo partly shown) [Compound D85]	UniProtKB P53634	30 to 75%
CN1CCC2(C1)OC(=O)c1ccc(-c3ccc(C[C@@H](C#N)NC(=O)[C@@H]4CNCCCO4)cc3)cc12 (stereo partly shown) [Compound D37]	UniProtKB P53634	< 30%
N#C[C@H](Cc1ccc(-c2ccc3c(c2)C(=O)OC3)cc1)NC(=O)[C@@H]1CNCCCO1 [Compound D45]	UniProtKB P53634	< 30%
N#C[C@H](Cc1ccc(-c2ccc3c(c2)C2(CN(C4COC4)C2)OC3)cc1F)NC(=O)[C@@H]1CNCCCO1 [Compound D57]	UniProtKB P53634	30 to 75%

Below: the item to evaluate.
Query :: Return inhibition at 0.005 µM for the following molecule: CN1CCC2(CC1)OC(=O)c1ccc(-c3ccc(C[C@@H](C#N)NC(=O)[C@@H]4CNCCCO4)c(F)c3)cc12 [Compound D104]
Result :: < 30%

* * *

# targetSystem: DPP1 (Homo sapiens (Human), UniProt P53634)
# Sequence (P53634 25-463): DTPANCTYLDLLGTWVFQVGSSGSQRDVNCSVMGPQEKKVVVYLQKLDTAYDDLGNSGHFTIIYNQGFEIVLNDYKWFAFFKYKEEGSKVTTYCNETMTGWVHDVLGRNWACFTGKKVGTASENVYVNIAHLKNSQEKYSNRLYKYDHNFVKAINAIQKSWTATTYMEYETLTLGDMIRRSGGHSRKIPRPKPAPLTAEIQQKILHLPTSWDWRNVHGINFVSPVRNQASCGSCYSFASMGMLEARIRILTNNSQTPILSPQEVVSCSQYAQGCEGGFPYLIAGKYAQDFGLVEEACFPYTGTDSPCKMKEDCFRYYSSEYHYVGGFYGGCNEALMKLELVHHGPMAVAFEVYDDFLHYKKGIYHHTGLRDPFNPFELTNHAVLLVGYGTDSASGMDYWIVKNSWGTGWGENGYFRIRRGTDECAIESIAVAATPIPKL
# experimentalDetails: DPP1 activity inhibition test on U937 cells
# Assay type: cell-based
# conditionLabel: U-937, 50 nM compound, substrate h-Gly-phe-AFC
measuredQuantity: inhibition at 0.05 µM

molecule	resultValue
CN1Cc2sc(-c3ccc(C[C@@H](C#N)NC(=O)[C@@H]4CNCCCO4)cc3)cc2C1=O [Compound D14]	30 to 75%
N#C[C@H](Cc1ccc(-c2ccc3c(n2)C2(CCN(C4COC4)CC2)OC3=O)cc1)NC(=O)[C@@H]1CNCCCO1 [Compound D28]	75 to 100%
CN1CC(n2c(=O)sc3ccc(-c4ccc(C[C@@H](C#N)NC(=O)[C@@H]5CNCCCO5)c(F)c4)cc32)C1 [Compound D70]	75 to 100%
N#C[C@H](Cc1ccc(-c2ccc3oc(=O)n(C(F)F)c3c2)cc1)NC(=O)[C@@H]1CNCCCO1 [Compound D04]	75 to 100%
CN1CCC2(C1)OCc1ccc(-c3ccc(C[C@@H](C#N)NC(=O)[C@@H]4CNCCCO4)cc3)cc12 (stereo partly shown) [Compound D36]	30 to 75%
N#C[C@H](Cc1ccc(-c2ccc3c(c2)C(=O)OC3)cc1)NC(=O)[C@@H]1CNCCCO1 [Compound D45]	30 to 75%

Below: the item to evaluate.
Query :: Return inhibition at 0.05 µM for the following molecule: CN1CCC2(C1)OC(=O)c1ccc(-c3ccc(C[C@@H](C#N)NC(=O)[C@@H]4CNCCCO4)c(F)c3)cc12 (stereo partly shown) [Compound D88]
Result :: 75 to 100%
